The measured values listed here are drawn from PubChem BioAssay AID1963836.

Provide the recorded viability, T/C for the entries that follow.
System: 857933-349-R-J2-PDC complex spheroid viability
Test Name: Anticancer human tumor 857933-349-R-J2-PDC patient-derived colon adenocarcinoma cell line growth inhibition [POLQ]
Condition Notes: second compound 3.16 µM; first compound 0.00316 µM; hits give low values
One number for each entry, in %.

Here is how some compounds turned out for viability, T/C.
Compound	Experimental Value
COc1cccc(OCCCN)c1-c1cc(Nc2cnc(C#N)cn2)n[nH]1 + Cc1cccc(N(C)C(=O)C2C(O)CCN2c2nc(C)cc(C(F)(F)F)c2C#N)c1	98.7
C=CCn1c(=O)c2cnc(Nc3ccc(N4CCN(C)CC4)cc3)nc2n1-c1cccc(C(C)(C)O)n1 + Nc1ccc(C#CCN(C(=O)Cc2ncc(C(F)(F)F)cc2C(F)(F)F)c2ccc(F)cc2)nn1	102
CCc1c2c(nc3ccc(O)cc13)-c1cc3c(c(=O)n1C2)COC(=O)[C@]3(O)CC + COC1C(OC(N)=O)C(O)C(Oc2ccc3c(O)c(NC(=O)c4ccc(O)c(CC=C(C)C)c4)c(=O)oc3c2C)OC1(C)C	84.8
C=CCn1c(=O)c2cnc(Nc3ccc(N4CCN(C)CC4)cc3)nc2n1-c1cccc(C(C)(C)O)n1 + COC1C(OC(N)=O)C(O)C(Oc2ccc3c(O)c(NC(=O)c4ccc(O)c(CC=C(C)C)c4)c(=O)oc3c2C)OC1(C)C	92

Below: the item to evaluate.
-- ask Provide only the value of recorded viability, T/C for Cn1ncnc1[C@H]1c2n[nH]c(=O)c3cc(F)cc(c23)N[C@@H]1c1ccc(F)cc1 + Nc1ccc(C#CCN(C(=O)Cc2ncc(C(F)(F)F)cc2C(F)(F)F)c2ccc(F)cc2)nn1
-- reply 93.5

###

Test system: 857933-349-R-J2-PDC complex spheroid viability
Test Name: Anticancer human tumor 857933-349-R-J2-PDC cell line growth inhibition [POLQ];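 note: spheroids exposed to compounds for seven days before readout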
Condition Notes: second compound 1 µM; first compound 0.001 µM; hits give low values
Measurement Type: viability, T/C (%)
Answers are plain numbers, in %.

Here is how some compounds turned out for viability, T/C.
Compound	Readout Units	viability, T/C
Cn1ncnc1[C@H]1c2n[nH]c(=O)c3cc(F)cc(c23)N[C@@H]1c1ccc(F)cc1 + Nc1ccc(C#CCN(C(=O)Cc2ncc(C(F)(F)F)cc2C(F)(F)F)c2ccc(F)cc2)nn1	%	85.8
CC[C@@]1(O)C(=O)OCc2c1cc1n(c2=O)Cc2cc3c(CN(C)C)c(O)ccc3nc2-1 + Cc1cccc(N(C)C(=O)C2C(O)CCN2c2nc(C)cc(C(F)(F)F)c2C#N)c1	%	75.8

Below: the item to evaluate.
-- ask Provide only the value of recorded viability, T/C for Cn1ncnc1[C@H]1c2n[nH]c(=O)c3cc(F)cc(c23)N[C@@H]1c1ccc(F)cc1 + Cc1cccc(N(C)C(=O)C2C(O)CCN2c2nc(C)cc(C(F)(F)F)c2C#N)c1
-- reply 96.5

###

Test system: 857933-349-R-J2-PDC complex spheroid viability
Test Name: Anticancer human tumor 857933-349-R-J2-PDC cell line growth inhibition [POLQ];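 note: spheroids exposed to compounds for seven days before readout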
Condition Notes: second compound 1 µM; first compound 3.16 µM; hits give low values
Please assign 0 whenever viability, T/C is at or above 40%, and 1 whenever it is below.

-- ask I wonder whether Nc1ccn(C2OC(CO)C(O)C2(F)F)c(=O)n1 (stereo unspecified) + Nc1ccc(C#CCN(C(=O)Cc2ncc(C(F)(F)F)cc2C(F)(F)F)c2ccc(F)cc2)nn1 has viability, T/C below 40%. Can you tell?
-- reply 1

-- ask I wonder whether C#Cc1c(F)ccc2cc(O)cc(-c3ncc4c(N5CC6CCC(C5)N6)nc(OCC56CCCN5CC(F)C6)nc4c3F)c12 (stereo unspecified) + COC1C(OC(N)=O)C(O)C(Oc2ccc3c(O)c(NC(=O)c4ccc(O)c(CC=C(C)C)c4)c(=O)oc3c2C)OC1(C)C has viability, T/C below 40%. Can you tell?
-- reply 0

-- ask I wonder whether CNCc1ccc(-c2[nH]c3cc(F)cc4c3c2CCNC4=O)cc1 + Nc1ccc(C#CCN(C(=O)Cc2ncc(C(F)(F)F)cc2C(F)(F)F)c2ccc(F)cc2)nn1 has viability, T/C below 40%. Can you tell?
-- reply 0

###

Tested on: 857933-349-R-J2-PDC complex spheroid viability
Test Name: Anticancer human tumor 857933-349-R-J2-PDC cell line growth inhibition [POLQ]; active = viability on the fitted dose curve at most 10% of control; inactive = the rest;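 note: spheroids exposed to compounds for seven days before readout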
Condition Notes: second compound 1 µM; first compound 10 µM
Tick one outcome: true (1) (active), false (0) (inactive)

Before answering, review these 10 worked examples.
Molecule	Discrete Label
COc1cc(C2c3cc4c(cc3C(OC3OC5COC(C)OC5C(O)C3O)C3COC(=O)C23)OCO4)cc(OC)c1O (stereo unspecified) + Cc1cccc(N(C)C(=O)C2C(O)CCN2c2nc(C)cc(C(F)(F)F)c2C#N)c1	false (0)
C=CC(=O)N1CCN(c2nc(=O)n(-c3c(C)ccnc3C(C)C)c3nc(-c4c(O)cccc4F)c(F)cc23)C(C)C1 (stereo unspecified) + Cc1cccc(N(C)C(=O)C2C(O)CCN2c2nc(C)cc(C(F)(F)F)c2C#N)c1	false (0)
CCc1cc2c(N3CCc4c(cc(Cn5ccnc5)cc4-c4cn(C)nc4C(F)(F)F)C3=O)ccnc2c(OC)n1 + Nc1ccc(C#CCN(C(=O)Cc2ncc(C(F)(F)F)cc2C(F)(F)F)c2ccc(F)cc2)nn1	false (0)
CNCc1ccc(-c2[nH]c3cc(F)cc4c3c2CCNC4=O)cc1 + Cc1cccc(N(C)C(=O)C2C(O)CCN2c2nc(C)cc(C(F)(F)F)c2C#N)c1	false (0)
COc1cccc2c1C(=O)c1c(O)c3c(c(O)c1C2=O)CC(O)(C(=O)CO)CC3OC1CC(N)C(O)C(C)O1 (stereo unspecified) + COC1C(OC(N)=O)C(O)C(Oc2ccc3c(O)c(NC(=O)c4ccc(O)c(CC=C(C)C)c4)c(=O)oc3c2C)OC1(C)C	true (1)
CC1COCCN1c1cc(C2(O)CC3CCC(C2)O3)c2cnn(-c3ccn[nH]3)c2n1 (stereo unspecified) + Nc1ccc(C#CCN(C(=O)Cc2ncc(C(F)(F)F)cc2C(F)(F)F)c2ccc(F)cc2)nn1	false (0)
COc1cc2cc(C(=O)CCC(=O)O)sc2cc1OC + Nc1ccc(C#CCN(C(=O)Cc2ncc(C(F)(F)F)cc2C(F)(F)F)c2ccc(F)cc2)nn1	false (0)
CC1COCCN1c1cc(C2(O)CC3CCC(C2)O3)c2cnn(-c3ccn[nH]3)c2n1 (stereo unspecified) + Cc1cccc(N(C)C(=O)C2C(O)CCN2c2nc(C)cc(C(F)(F)F)c2C#N)c1	false (0)
CC1COCCN1c1cc(C2(S(C)(=N)=O)CC2)nc(-c2ccnc3[nH]ccc23)n1 (stereo unspecified) + Cc1cccc(N(C)C(=O)C2C(O)CCN2c2nc(C)cc(C(F)(F)F)c2C#N)c1	false (0)
CCc1cc2c(N3CCc4c(cc(Cn5ccnc5)cc4-c4cn(C)nc4C(F)(F)F)C3=O)ccnc2c(OC)n1 + Cc1cccc(N(C)C(=O)C2C(O)CCN2c2nc(C)cc(C(F)(F)F)c2C#N)c1	false (0)

Please turn your attention to the following entry.
-- ask Check the results log: what was the call for COc1ccc([C@@H](O)c2cc(-c3ncnc4cc(N5CCOCC5)ccc34)c(F)cc2Cl)nn1 + COC1C(OC(N)=O)C(O)C(Oc2ccc3c(O)c(NC(=O)c4ccc(O)c(CC=C(C)C)c4)c(=O)oc3c2C)OC1(C)C ?
-- reply false (0)

###

Provide the recorded viability, T/C for the entries that follow.
System: 857933-349-R-J2-PDC complex spheroid viability
Test Name: Anticancer human tumor 857933-349-R-J2-PDC cell line growth inhibition [POLQ];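 note: spheroids exposed to compounds for seven days before readout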
Condition Notes: second compound 1 µM; first compound 0.00316 µM; hits give low values
Answers are plain numbers, in %.

Molecule	Study Target	viability, T/C, %
Cn1ncnc1[C@H]1c2n[nH]c(=O)c3cc(F)cc(c23)N[C@@H]1c1ccc(F)cc1 + Cc1cccc(N(C)C(=O)C2C(O)CCN2c2nc(C)cc(C(F)(F)F)c2C#N)c1	857933-349-R-J2-PDC complex spheroid viability	80.9
Cn1ncnc1[C@H]1c2n[nH]c(=O)c3cc(F)cc(c23)N[C@@H]1c1ccc(F)cc1 + COC1C(OC(N)=O)C(O)C(Oc2ccc3c(O)c(NC(=O)c4ccc(O)c(CC=C(C)C)c4)c(=O)oc3c2C)OC1(C)C	857933-349-R-J2-PDC complex spheroid viability	76.4
CC[C@@]1(O)C(=O)OCc2c1cc1n(c2=O)Cc2cc3c(CN(C)C)c(O)ccc3nc2-1 + COC1C(OC(N)=O)C(O)C(Oc2ccc3c(O)c(NC(=O)c4ccc(O)c(CC=C(C)C)c4)c(=O)oc3c2C)OC1(C)C	857933-349-R-J2-PDC complex spheroid viability	86
C=CCn1c(=O)c2cnc(Nc3ccc(N4CCN(C)CC4)cc3)nc2n1-c1cccc(C(C)(C)O)n1 + Nc1ccc(C#CCN(C(=O)Cc2ncc(C(F)(F)F)cc2C(F)(F)F)c2ccc(F)cc2)nn1	857933-349-R-J2-PDC complex spheroid viability	96.5
C=CCn1c(=O)c2cnc(Nc3ccc(N4CCN(C)CC4)cc3)nc2n1-c1cccc(C(C)(C)O)n1 + COC1C(OC(N)=O)C(O)C(Oc2ccc3c(O)c(NC(=O)c4ccc(O)c(CC=C(C)C)c4)c(=O)oc3c2C)OC1(C)C	857933-349-R-J2-PDC complex spheroid viability	102

For each listed entry, give its viability, T/C.
1. COc1cccc(OCCCN)c1-c1cc(Nc2cnc(C#N)cn2)n[nH]1 + Nc1ccc(C#CCN(C(=O)Cc2ncc(C(F)(F)F)cc2C(F)(F)F)c2ccc(F)cc2)nn1
2. CCc1c2c(nc3ccc(O)cc13)-c1cc3c(c(=O)n1C2)COC(=O)[C@]3(O)CC + Cc1cccc(N(C)C(=O)C2C(O)CCN2c2nc(C)cc(C(F)(F)F)c2C#N)c1
3. Cn1ncnc1[C@H]1c2n[nH]c(=O)c3cc(F)cc(c23)N[C@@H]1c1ccc(F)cc1 + Nc1ccc(C#CCN(C(=O)Cc2ncc(C(F)(F)F)cc2C(F)(F)F)c2ccc(F)cc2)nn1
4. COc1cccc(OCCCN)c1-c1cc(Nc2cnc(C#N)cn2)n[nH]1 + COC1C(OC(N)=O)C(O)C(Oc2ccc3c(O)c(NC(=O)c4ccc(O)c(CC=C(C)C)c4)c(=O)oc3c2C)OC1(C)C

-- reply
[109, 73.9, 86, 95]

-- ask Provide only the value of recorded viability, T/C for CCc1c2c(nc3ccc(O)cc13)-c1cc3c(c(=O)n1C2)COC(=O)[C@]3(O)CC + COC1C(OC(N)=O)C(O)C(Oc2ccc3c(O)c(NC(=O)c4ccc(O)c(CC=C(C)C)c4)c(=O)oc3c2C)OC1(C)C
-- reply 89
